biological target: Cytochrome P450 2C19 (Homo sapiens); assay: blockers of cytochrome P450 2C19 activity – biochemical, luminescence, ADME assay, primary screen (AID 778); settings: CYP2C19 Supersomes, luciferin-H EGE luminescence, 30 min; at 5 µM; stronger effect = higher value;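 also: plate controls were negative control wells for no effect and 2.5 mM tranylcypromine positive control for full effect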
Out of some 96,000 compounds screened, about 20,000 (21%) were called active. Only a sample is shown.
Classes (inhibition): bottom range (below 20%), center range (20% to below 40%), top range (40% or more)

{"molecule": "CN(C)C(=O)c1cc(Br)ccc1Cl", "assigned.label": "bottom range"}
{"molecule": "Cc1cc(Br)ccc1NC(=O)C1CCCO1 (configuration not stated)", "assigned.label": "top range"}
{"molecule": "Cc1nnc(NC(=O)Nc2ccc(Cl)c(Cl)c2)s1", "assigned.label": "bottom range"}
{"molecule": "COC(=O)CSc1snnc1-c1ccc(Cl)c(Cl)c1", "assigned.label": "top range"}
{"molecule": "CCCc1nc(-c2ccccc2O)n(-c2ccccc2)n1", "assigned.label": "center range"}
{"molecule": "CN1CCc2c(sc3c2c(NCc2ccco2)nc2nnnn23)C1", "assigned.label": "center range"}
{"molecule": "O=C(CC(O)(C(F)(F)F)C(F)(F)F)Nc1ccc(Cl)c(Cl)c1", "assigned.label": "top range"}
{"molecule": "O=C(/C=C/Sc1ncn[nH]1)c1ccc(Cl)cc1", "assigned.label": "center range"}
{"molecule": "COc1ccc(N2C(=O)C3CCCN3C2c2cc(OC)c(OC)cc2OC)cc1 (configuration not stated)", "assigned.label": "bottom range"}
{"molecule": "CCOC(=O)c1cc2n(c1C)-c1ccccc1C2=O", "assigned.label": "bottom range"}
{"molecule": "Cc1[nH]c(=O)c(C(=O)/C=C/c2ccccc2)c2c1CCCC2", "assigned.label": "top range"}

----------
molecular target: Cytochrome P450 2C19 (Homo sapiens); experiment: blockers of cytochrome P450 2C19 activity – biochemical, luminescence, ADME assay, primary screen (AID 778); details: CYP2C19 Supersomes, luciferin-H EGE luminescence, 30 min; at 5 µM; stronger effect = higher value;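 also: plate controls were negative control wells for no effect and 2.5 mM tranylcypromine positive control for full effect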
About 20,000 (21%) of roughly 96,000 compounds were called active. These entries were drawn from the full list.
Each entry gets Not satisfied if its inhibition stays under 40%, and Satisfied if its inhibition is 40% or above.

{"compound": "COc1ccccc1CCNC(=O)c1cnccn1", "assigned.label": "Not satisfied"}
{"compound": "O=C(CSc1nc2ccccc2o1)N1CCN(c2ccc(Cl)cc2)CC1", "assigned.label": "Not satisfied"}
{"compound": "COc1ccccc1-c1cc(C(=O)N2CCCCC2)no1", "assigned.label": "Satisfied"}
{"compound": "O=C(O)CSCc1ccc(C(=O)O)o1", "assigned.label": "Not satisfied"}
{"compound": "CCOc1ccc(C(=O)NCCCN2CCCC2=O)cc1", "assigned.label": "Not satisfied"}
{"compound": "CCOc1ccccc1Nc1nnc(SCc2ccc(C(=O)OC)o2)s1", "assigned.label": "Satisfied"}
{"compound": "Cc1ccccc1-c1nnn(CC(=O)c2ccc(S(=O)(=O)N3CCCC3)cc2)n1", "assigned.label": "Not satisfied"}
{"compound": "S=C(NCc1ccc(Cl)cc1)NC12CC3CC(CC(C3)C1)C2", "assigned.label": "Satisfied"}
{"compound": "CNC(=O)CSc1nnc(CCc2ccccc2)n1-c1ccccc1", "assigned.label": "Not satisfied"}
{"compound": "S=C(NCc1cccs1)Nc1ccc(Cl)cc1", "assigned.label": "Satisfied"}
{"compound": "Cc1cc(=O)[nH]c(SCC(=O)N2c3ccccc3CC2C)n1 (stereo not given)", "assigned.label": "Not satisfied"}
{"compound": "COc1ccccc1CSc1nc2ccccc2[nH]1", "assigned.label": "Satisfied"}
{"compound": "C=CCSc1nc(Cc2ccc(Cl)cc2)nc2ccccc12", "assigned.label": "Not satisfied"}
{"compound": "CC1Cc2ccccc2N1C(=O)CSc1nc2ccccc2o1 (stereo not given)", "assigned.label": "Satisfied"}
{"compound": "O=C(CCN1C(=O)c2ccccc2C1=O)Nc1ccncc1", "assigned.label": "Not satisfied"}
{"compound": "CCn1c(SCC(=O)Nc2ccc(S(=O)(=O)Nc3onc(C)c3C)cc2)nnc1-c1ccccc1", "assigned.label": "Not satisfied"}
{"compound": "CCn1c(Cc2ccccc2)nnc1SCC(=O)Nc1ccccc1", "assigned.label": "Satisfied"}
{"compound": "O=C(CSc1nc2ccccc2o1)N1CCN(c2ccccc2)CC1", "assigned.label": "Satisfied"}
{"compound": "COc1ccc(-c2cc(C(=O)NCc3ccco3)no2)cc1OC", "assigned.label": "Not satisfied"}
{"compound": "CCOC(=O)c1csc(NC(=O)c2ccc(S(=O)(=O)N3CCCC3)cc2)n1", "assigned.label": "Not satisfied"}
{"compound": "COc1ccccc1-c1cc(C(=O)NCCCn2ccnc2)no1", "assigned.label": "Satisfied"}
{"compound": "Cc1cc(C)n(C(=O)c2ccc(C)c(S(=O)(=O)N3CCOCC3)c2)n1", "assigned.label": "Satisfied"}
{"compound": "O=C(c1cc(-c2ccccc2O)on1)N1CCCC1", "assigned.label": "Not satisfied"}
{"compound": "CCCCOCCCNC(=O)c1ccccc1OCC", "assigned.label": "Satisfied"}
{"compound": "O=C(COc1ccccc1F)NC1CC1", "assigned.label": "Not satisfied"}

----------
target: Cytochrome P450 2C19 (Homo sapiens); assay: blockers of cytochrome P450 2C19 activity – biochemical, luminescence, ADME assay, primary screen (AID 778); conditions: CYP2C19 Supersomes, luciferin-H EGE luminescence, 30 min; at 5 µM;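 also: plate controls were negative control wells for no effect and 2.5 mM tranylcypromine positive control for full effect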
Among all 96,000 compounds or so, about 20,000 (21%) were called active.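 The calls were made as follows: active = CYP2C19 inhibition above a set limit at 5 µM in the primary screen (cut at about 50% in these data); inactive = the rest.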 The list is a sample of the results.
Outcome codes: active, inactive

{"molecule": "Cc1ccc(C(=O)CSc2nc3ccccc3c(=O)n2N)o1", "assigned.label": "inactive"}
{"molecule": "CCOC(=O)c1c(C)[nH]c(C(=O)COc2ccc3c(c2)OCO3)c1C", "assigned.label": "active"}
{"molecule": "COc1ccc2ccccc2c1CNCc1ccccn1", "assigned.label": "inactive"}
{"molecule": "O=C(O)[C@@H]1CCCN1c1ncnc2sc3c(c12)CCC3", "assigned.label": "inactive"}
{"molecule": "CCOc1ccc(NCCC(=O)c2ccc3c(c2)OCO3)cc1", "assigned.label": "inactive"}
{"molecule": "Cc1ccnc(-n2sc3ccccc3c2=O)n1", "assigned.label": "inactive"}
{"molecule": "COc1ccc(OCc2ccc(-c3nc4ccccc4c(=O)n3N)o2)cc1", "assigned.label": "active"}
{"molecule": "Cc1oc(-c2cccc(Cl)c2)[n+]([O-])c1C", "assigned.label": "inactive"}
{"molecule": "O=C(NC1CC2CCCC(C1)N2C(=O)N1CCCCC1)C1CCCCC1 (stereo not drawn)", "assigned.label": "active"}
{"molecule": "Cc1ccc(Cc2cncc(O)c2)cc1S(=O)(=O)O", "assigned.label": "inactive"}
{"molecule": "O=C(CSc1nnc(-c2ccco2)n1Cc1ccccc1)NC(=O)NCc1ccco1", "assigned.label": "active"}
{"molecule": "Cc1nc2nc(SCC(=O)NCc3ccco3)nn2c(C)c1Cc1ccccc1", "assigned.label": "inactive"}
{"molecule": "COc1ccc(C(=O)NC(=O)CSc2nnc(-c3ccco3)n2-c2ccccc2)cc1", "assigned.label": "inactive"}
{"molecule": "CCOC(=O)c1c(C)oc2ccc(OCC(=O)N(CC)CC)cc12", "assigned.label": "inactive"}
{"molecule": "Cc1cc([N+](=O)[O-])c(N2CCC[C@@H]2C(=O)O)c([N+](=O)[O-])c1", "assigned.label": "inactive"}
{"molecule": "Cc1ccc(N2C(=O)c3ccccc3C2(O)c2ncc[nH]2)cc1 (stereo not drawn)", "assigned.label": "inactive"}
{"molecule": "Cc1cc2c(cc1C)NC(c1ccccn1)C1=C(CC(C)(C)CC1=O)N2 (stereo not drawn)", "assigned.label": "inactive"}
{"molecule": "Cc1ccc(NC(=S)NC(NC(=O)Cc2cccc3ccccc23)C(Cl)(Cl)Cl)cc1 (stereo not drawn)", "assigned.label": "inactive"}
{"molecule": "Cc1ccc(S(=O)(=O)NCc2nc3ccccc3c(=O)n2N)cc1", "assigned.label": "inactive"}
{"molecule": "CCOc1ccccc1-n1c(SCC(=O)NCc2ccco2)nnc1-c1ccncc1", "assigned.label": "active"}
{"molecule": "Cc1nn(-c2ccccn2)c2c1C(c1ccncc1)C1=C(CC(C)(C)CC1=O)N2 (stereo not drawn)", "assigned.label": "active"}
{"molecule": "Cn1c(COc2ccc(Cl)cc2)nc2ccccc2c1=O", "assigned.label": "active"}
{"molecule": "c1ccc(CSc2nnc(-c3ccco3)n2Cc2ccccc2)cc1", "assigned.label": "inactive"}

----------
molecular target: Cytochrome P450 2C19 (Homo sapiens); test: blockers of cytochrome P450 2C19 activity – biochemical, luminescence, ADME assay, primary screen (AID 778); settings: CYP2C19 Supersomes, luciferin-H EGE luminescence, 30 min; at 5 µM; stronger effect = higher value;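 also: plate controls were negative control wells for no effect and 2.5 mM tranylcypromine positive control for full effect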
Screen size: about 96,000 compounds; about 20,000 (21%) were called active. The list is a sample of the results.
Parameter inhibition: see the listing below.
quantity.name: inhibition (%)

{"molecule": "Cn1cc([N+](=O)[O-])c(C(=O)Nc2ccc3c(c2)OCCO3)n1", "system.under.test": "Cytochrome P450 2C19 (Homo sapiens)", "quantity.name": "inhibition", "experimental.result": 43.6}
{"molecule": "O=C1C=C(c2ccc(Cl)cc2)C(=O)N1Nc1ccccc1", "system.under.test": "Cytochrome P450 2C19 (Homo sapiens)", "quantity.name": "inhibition", "experimental.result": 19.7}
{"molecule": "CCN(CC)C(=O)CCC(=O)Nc1ccc(C(=O)OC)cc1", "system.under.test": "Cytochrome P450 2C19 (Homo sapiens)", "quantity.name": "inhibition", "experimental.result": 33.7}
{"molecule": "O=C(O)c1ccccc1NC(=S)NC(NC(=O)c1ccccc1[N+](=O)[O-])C(Cl)(Cl)Cl (stereo unspecified)", "system.under.test": "Cytochrome P450 2C19 (Homo sapiens)", "quantity.name": "inhibition", "experimental.result": 2}
{"molecule": "COc1ccc(-c2noc(COc3ccc(Cl)c(C)c3)n2)cc1", "system.under.test": "Cytochrome P450 2C19 (Homo sapiens)", "quantity.name": "inhibition", "experimental.result": 6.4}
{"molecule": "Cc1ccc(-c2csc(NC(=O)Cc3cccs3)n2)cc1C", "system.under.test": "Cytochrome P450 2C19 (Homo sapiens)", "quantity.name": "inhibition", "experimental.result": 10}
{"molecule": "CCOC(=O)c1c(C)nc(-c2ccccc2)nc1NC(=O)C(C)C", "system.under.test": "Cytochrome P450 2C19 (Homo sapiens)", "quantity.name": "inhibition", "experimental.result": 37.3}
{"molecule": "Cc1ccc(SCc2cc(=O)[nH]c(N3CCCCC3)n2)cc1", "system.under.test": "Cytochrome P450 2C19 (Homo sapiens)", "quantity.name": "inhibition", "experimental.result": 30.5}
{"molecule": "Cc1cc(C)c2nc(NC(=O)c3ccc4c(c3)OCO4)sc2c1", "system.under.test": "Cytochrome P450 2C19 (Homo sapiens)", "quantity.name": "inhibition", "experimental.result": -1.4}
{"molecule": "COc1cccc(OC)c1C(=O)Nc1ccc(N2CCCCC2)cc1", "system.under.test": "Cytochrome P450 2C19 (Homo sapiens)", "quantity.name": "inhibition", "experimental.result": -3.6}
{"molecule": "Cc1nnc(SCC(=O)N2CCc3ccccc32)n1-c1ccccc1", "system.under.test": "Cytochrome P450 2C19 (Homo sapiens)", "quantity.name": "inhibition", "experimental.result": 3.9}

Cited source: PubChem BioAssay AID778
